Biological target: T1, cynomolgus monkey CD73 antigen (cynomolgus monkey, UniProt A0A2K5V5U7 27-547)
T1 construct: also called Biotinylated cynomolgus monkey CD73
T1 sequence: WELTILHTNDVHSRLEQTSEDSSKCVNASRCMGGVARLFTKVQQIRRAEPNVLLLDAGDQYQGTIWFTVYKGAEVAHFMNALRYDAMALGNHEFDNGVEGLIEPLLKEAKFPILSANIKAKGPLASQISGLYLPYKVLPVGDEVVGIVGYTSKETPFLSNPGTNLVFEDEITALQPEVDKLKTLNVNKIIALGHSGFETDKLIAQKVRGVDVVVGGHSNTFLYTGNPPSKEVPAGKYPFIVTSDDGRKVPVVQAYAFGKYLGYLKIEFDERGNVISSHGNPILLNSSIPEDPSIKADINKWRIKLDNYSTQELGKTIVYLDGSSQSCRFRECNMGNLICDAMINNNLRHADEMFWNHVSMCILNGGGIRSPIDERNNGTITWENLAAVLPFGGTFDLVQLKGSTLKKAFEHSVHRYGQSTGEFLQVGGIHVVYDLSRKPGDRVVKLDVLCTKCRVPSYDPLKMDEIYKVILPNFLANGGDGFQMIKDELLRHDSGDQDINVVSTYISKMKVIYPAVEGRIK
Assay: ForteBio BLI; antigen on sensor, 100 nM scFv; monovalent; 1:1 model
Below, each entry is listed alongside its reported Kd.
property: Kd (nM)

[[record]]
binder = "scfv fragment of ADI-37542 (scFv, V domains shown) VH: QVQLQESGPGLVKPSETLSLTCAVSGYSISEGYYWGWIRQPPGKGLEWIGSIYHTGFTYYNPSLKSRVTISVDTSKNQFSLKLSSVTAADTAVYYCARASIYTPPPEYFQHWGQGTLVTVSS VL: DIQMTQSPSTLSASVGDRVTITCRASQSISSWLAWYQQKPGKAPKLLIYDASSLESGVPSRFSGSGSGTEFTLTISSLQPDDFATYYCQQSRIYSTFGGGTKVEIK"
property = "Kd"
measurement = 5.47

[[record]]
binder = "scfv fragment of ADI-37504 (scFv, V domains shown) VH: EVQLLESGGGLVQPGGSLRLSCAASGFTFHNYAMSWVRQAPGKGLEWVSAISGTGRATYYADSVKGRFTISRDNSKNTLYLQMNSLRAEDTAVYYCARGGPYGSGSYWDTFDYWGQGTLVTVSS VL: EIVMTQSPATLSVSPGERATLSCRASQSVSSNLAWYQQKPGQAPRLLIYGASTRATGIPARFSGSGSGTEFTLTISSLQSEDFAVYYCQQYTNHYTFGGGTKVEIK"
property = "Kd"
measurement = 20.2

[[record]]
binder = "scfv fragment of ADI-37496 (scFv, V domains shown) VH: EVQLVESGGGLVQPGRSLRLSCAASGFTFDDFYMHWVRQAPGKGLEWVSGISWSSTSIDYADSVKGRFTISRDNAKNSLYLQMNSLRAEDTAVYYCAKGKYLPTGSVDYWGQGTLVTVSS VL: EIVLTQSPGTLSLSPGERATLSCRASQSVSSSYLAWYQQKPGQAPRLLIYGASSRATGIPDRFSGSGSGTDFTLTISRLEPEDFAVYYCQQYYDYPPITFGGGTKVEIK"
property = "Kd"
measurement = 13.7

[[record]]
binder = "scfv fragment of ADI-37505 (scFv, V domains shown) VH: QVQLVESGGGLVQPGGSLRLSCAASGFTFSNYAMTWVRQAPGKGLEWVSAISGRGTATYYADSVKGRFTISRDNSKNTLYLQMNSLRAEDTAVYYCARGGPYGSGSYWDTFDYWGQGTLVTVSS VL: EIVMTQSPATLSVSPGERATLSCRASQSVSSNLAWYQQKPGQAPRLLIYGASTRATGIPARFSGSGSGTEFTLTISSLQSEDFAVYYCQQYTNHYTFGGGTKVEIK"
property = "Kd"
measurement = 5.34

[[record]]
binder = "scfv fragment of ADI-37522 (scFv, V domains shown) VH: QVQLVESGGGVVQPGRSLRLSCAASGFTFSHYGMHWVRQAPGKGLEWVAVISDEGSNKYYADSVKGRFTISRDNSKNTLYLQMNSLRAEDTAVYYCARGWLRYPIAFDIWGQGTMVTVSS VL: DIQLTQSPSSVSASVGDRVTITCRASQDISSWLAWYQQKPGKAPKLLIYAASSLQSGVPSRFSGSGSGTDFTLTISSLQPEDFATYYCQQANDFPITFGGGTKVEIK"
property = "Kd"
measurement = 2.93

